biological target: SMARCA4 (Homo sapiens, UniProt P51532); construct: SMARCA2 and SMARCA4 protein degradation in MV4-11 cells; endogenous in cells; host or cells: MV4-11; assay: SMARCA4 Western blot MV4-11 degradation; format: cell-based; details: MV4-11 cells, 24 h, read-out: SMARCA4 WB MV411 degradation 24 h: Average external-Abs DC50
Sequence (P51532 whole entry): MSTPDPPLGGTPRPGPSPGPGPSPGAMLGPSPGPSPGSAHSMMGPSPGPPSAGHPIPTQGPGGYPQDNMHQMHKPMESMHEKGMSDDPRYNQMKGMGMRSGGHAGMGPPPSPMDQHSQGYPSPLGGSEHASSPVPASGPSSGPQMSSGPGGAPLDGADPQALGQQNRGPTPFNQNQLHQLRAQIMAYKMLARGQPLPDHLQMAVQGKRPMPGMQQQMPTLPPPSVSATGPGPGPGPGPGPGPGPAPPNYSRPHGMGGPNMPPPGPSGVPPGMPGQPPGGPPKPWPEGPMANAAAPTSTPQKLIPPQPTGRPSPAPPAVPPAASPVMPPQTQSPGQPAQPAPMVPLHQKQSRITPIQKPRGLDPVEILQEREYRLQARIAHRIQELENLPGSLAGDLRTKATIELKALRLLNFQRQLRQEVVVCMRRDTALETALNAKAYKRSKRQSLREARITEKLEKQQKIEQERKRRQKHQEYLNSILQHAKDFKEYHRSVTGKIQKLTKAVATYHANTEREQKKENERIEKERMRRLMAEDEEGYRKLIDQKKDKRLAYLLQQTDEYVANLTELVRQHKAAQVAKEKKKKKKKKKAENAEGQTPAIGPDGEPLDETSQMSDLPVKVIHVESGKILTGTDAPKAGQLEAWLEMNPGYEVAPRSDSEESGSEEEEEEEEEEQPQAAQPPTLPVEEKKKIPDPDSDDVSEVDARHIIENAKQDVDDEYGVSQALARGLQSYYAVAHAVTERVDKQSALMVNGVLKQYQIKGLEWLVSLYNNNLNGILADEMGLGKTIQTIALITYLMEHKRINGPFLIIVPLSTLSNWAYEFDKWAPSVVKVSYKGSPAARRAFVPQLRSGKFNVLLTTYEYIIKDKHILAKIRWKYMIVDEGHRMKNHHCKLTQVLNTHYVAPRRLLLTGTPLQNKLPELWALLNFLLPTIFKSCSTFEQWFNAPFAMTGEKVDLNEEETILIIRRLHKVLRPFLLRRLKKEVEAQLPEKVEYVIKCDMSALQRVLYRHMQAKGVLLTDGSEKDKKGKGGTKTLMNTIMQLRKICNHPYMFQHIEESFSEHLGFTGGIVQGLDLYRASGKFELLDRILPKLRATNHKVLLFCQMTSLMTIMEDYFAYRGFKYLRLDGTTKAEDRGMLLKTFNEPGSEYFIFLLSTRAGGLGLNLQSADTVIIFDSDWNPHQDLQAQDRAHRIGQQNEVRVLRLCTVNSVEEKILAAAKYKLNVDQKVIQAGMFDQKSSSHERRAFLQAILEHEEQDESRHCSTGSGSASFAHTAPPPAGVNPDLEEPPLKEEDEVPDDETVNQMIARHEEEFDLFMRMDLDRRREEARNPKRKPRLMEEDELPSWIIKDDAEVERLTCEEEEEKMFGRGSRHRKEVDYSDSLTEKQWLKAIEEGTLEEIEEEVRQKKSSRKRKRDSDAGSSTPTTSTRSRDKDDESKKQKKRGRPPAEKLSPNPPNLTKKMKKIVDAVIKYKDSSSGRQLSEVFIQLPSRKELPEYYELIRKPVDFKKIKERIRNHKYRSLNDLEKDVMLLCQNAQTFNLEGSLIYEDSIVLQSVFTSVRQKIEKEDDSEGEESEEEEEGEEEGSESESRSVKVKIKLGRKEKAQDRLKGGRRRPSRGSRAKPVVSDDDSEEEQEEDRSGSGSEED
Here, each record is paired with measured DC50 data.
measured metric: DC50

compound | result
Cc1ncsc1-c1ccc(CNC(=O)[C@@H]2C[C@@H](O)CN2C(=O)[C@@H](NC(=O)[C@H]2CC[C@H](CN3CCC(n4cc(-c5cc(-c6ccccc6O)nnc5N)cn4)CC3)CC2)C(C)(C)C)cc1 | 501 to 1000 nM
Cc1ncsc1-c1ccc(CNC(=O)[C@@H]2C[C@@H](O)CN2C(=O)[C@@H](NC(=O)C2CCN(Cc3cnc(N4C5CCC4CN(c4cc(-c6ccccc6O)nnc4N)C5)nc3)CC2)C(C)(C)C)cc1 [I-384] | < 100 nM
Nc1nnc(-c2ccccc2O)cc1-c1cnn(C2CCN(C3CCC(Nc4ccc5c(c4)C(=O)N(C4CCC(=O)NC4=O)C5=O)CC3)CC2)c1 (centres unmarked) | < 100 nM
Cc1ncsc1-c1ccc(CNC(=O)[C@@H]2C[C@@H](O)CN2C(=O)[C@@H](NC(=O)COCC#Cc2cnc(N3C4CCC3CN(c3cc(-c5ccccc5O)nnc3N)C4)nc2)C(C)(C)C)cc1 | < 100 nM
Nc1nnc(-c2ccccc2O)cc1-c1cnn(C2CCN([C@H]3CC[C@H](CNc4ccc5c(c4)C(=O)N(C4CCC(=O)NC4=O)C5=O)CC3)CC2)c1 (some centres unmarked) | < 100 nM
